Hey, just so you know, these numbers are from the supplement of paper PMC12042874.

Test: amyloid nucleation score (Sup35N fusion, yeast selection) (log enrichment); library NNK1; higher = more nucleation; inactive = no reads after selection;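 also: zero at mode of non-aggregating sequences after 7 days selection at 30°C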
Field: class. Source value: amyloid nucleation score. Ranges: I: < -0.2; II: ≥ -0.2 and < 0.5; III: ≥ 0.5

>>> label("WVLAVRTSNLCRRGMLYKL")
"I"
>>> label("MLLLSVSLSLKID")
"III"
>>> label("LQDFGKHPTLRCTVYRLHRP")
"I"
>>> label("SVACPGLARMGRRSGREYNE")
"I"
>>> label("KDQKISVIMFILMRVPLY")
"III"
>>> label("GLGYPSVFSEHCVGLRDCEL")
"II"
>>> label("CLYARLSFASGYCGLAMRCV")
"II"
>>> label("RWSWTVIMSMEADGCFRLHL")
"III"
>>> label("MISLHVL")
"II"
>>> label("TASRYLVVRN")
"III"
>>> label("EYMFGYVSLSVDGSTLEFHD")
"II"
>>> label("SGFSGVRNHPRETQLCHGSA")
"II"
>>> label("FRFMVLGLVSLGIGV")
"I"
>>> label("NYITCC")
"III"
>>> label("QYWVCNKPTLVDYRDTCDRT")
"II"
>>> label("CSGLNVSLSRRQVVVLSV")
"I"
